TARGET_SYSTEM: T1, human ST2L extracellular domain with C-terminal His6 tag (human, UniProt Q01638 19-328)
T1 construct: also called huST2L-ECD; ST2L-ECD
T1 sequence: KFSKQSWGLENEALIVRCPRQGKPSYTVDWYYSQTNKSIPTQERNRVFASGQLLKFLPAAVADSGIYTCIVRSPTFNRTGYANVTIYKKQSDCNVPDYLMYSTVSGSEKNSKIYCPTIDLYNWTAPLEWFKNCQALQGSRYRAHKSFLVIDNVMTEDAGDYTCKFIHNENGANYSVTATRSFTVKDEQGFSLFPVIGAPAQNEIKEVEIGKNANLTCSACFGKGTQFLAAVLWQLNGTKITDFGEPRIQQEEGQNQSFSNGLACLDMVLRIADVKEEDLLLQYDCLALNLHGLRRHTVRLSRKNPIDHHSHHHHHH
EXPERIMENT_NOTES: RLB ELISA: biotinylated IL-33 on coated huST2L-ECD, antibody titrated
EXPERIMENTAL_ENDPOINT: IC50 (µg/mL)
Give a bare numeral; the unit µg/mL is implied.

STLM229 (antibody, V domains shown, VH STLH201 + VL STLL275) VH: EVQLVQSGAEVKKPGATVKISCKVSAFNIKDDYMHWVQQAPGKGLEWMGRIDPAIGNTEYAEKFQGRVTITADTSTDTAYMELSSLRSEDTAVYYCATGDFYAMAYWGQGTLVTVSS VL: DIQMTQSPSSVSASVGDRVTITCITNTDIDDVIHWYQQKPGKAPKLLIYEGNTLRPGVPSRFSGSGSGTDFTLTISSLQPEDFATYYCLQSDNMLTFGQGTKLEIK: 0.29
STLM124 (antibody, V domains shown, frameworks VH3-23 / Vk-L6) VH: EVQLLESGGGLVQPGGSLRLSCAASGFTFSIYDMIWVRQAPGKGLEWVSTIKGEGGGTYYADSVKGRFTISRDNSKNTLYLQMNSLRAEDTAVYYCARDPWSTEGSFFVLDYWGQGTLVTVSS VL: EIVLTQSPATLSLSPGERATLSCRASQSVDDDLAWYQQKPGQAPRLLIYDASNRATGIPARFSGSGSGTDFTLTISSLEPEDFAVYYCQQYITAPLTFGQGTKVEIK: 0.35

Next binder, IC50 to be filled in.
Which IC50 is listed for STLM219 (antibody, V domains shown, frameworks VH3-23 / Vk-L6) VH: EVQLLESGGGLVQPGGSLRLSCAASGFTFSGYDMFWVRQAPGKGLEWVSDIGGEGGSTNYADSVKGRFTISRDNSKNTLYLQMNSLRAEDTAVYYCARDPWSTEGSFFVLDYWGQGTLVTVSS VL: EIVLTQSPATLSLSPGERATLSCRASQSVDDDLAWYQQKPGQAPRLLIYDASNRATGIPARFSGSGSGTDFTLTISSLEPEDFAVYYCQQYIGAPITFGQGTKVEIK ?
0.29
